biological target: human CLDN6 fused to GFP, expressed on engineered HEK293T cells (human) (UniProt P56747); assay: FACS, 293T clone with human CLDN6, 1.5 ug Ab
Outcome measure: FACS signal

Q: Specify measured FACS signal for AB3-5 (antibody, V domains shown) VH: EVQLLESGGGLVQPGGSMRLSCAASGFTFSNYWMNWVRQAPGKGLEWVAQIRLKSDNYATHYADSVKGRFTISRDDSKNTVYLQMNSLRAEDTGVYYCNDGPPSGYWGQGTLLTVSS VL: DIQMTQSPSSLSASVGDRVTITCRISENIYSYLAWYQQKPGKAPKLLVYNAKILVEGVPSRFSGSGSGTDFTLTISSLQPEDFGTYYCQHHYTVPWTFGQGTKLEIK .
A: 48600

Q: Fill in reported FACS signal for this entry: AB4-5 (antibody, V domains shown) VH: QVQLVQSGAEVKKPGASVKMSCKASGYTFTSYTMHWIRQAPGQGQEWIGYINPSSTYTHYAQKFQGRATLTADTSTSTAYMELSSLRSEDTAVYYCSRGELGGFAYWGQGTLVTVSS VL: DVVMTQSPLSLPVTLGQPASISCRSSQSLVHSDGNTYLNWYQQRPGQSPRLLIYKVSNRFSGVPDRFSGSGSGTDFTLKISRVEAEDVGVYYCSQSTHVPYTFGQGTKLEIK
A: 43400
